Below is a list of entries, each paired with its recorded %Inh value.
System: RPS6KA5(Kin.Dom.1-N-terminal)
Conditions: concentration: 1 μM, replicates: in singlicate; n = 1;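 further: KINOMEscan kinase panel screen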
# output: bare number, implied unit %

Answered cases to consult:
[[record]]
compound = "O=C(Nc1cccc(-c2nn3ncccc3c2-c2ccnc(Nc3ccccc3)n2)c1)c1c(F)cccc1F [GSK198271]"
unit_abbrev = "%"
endpoint_value = 18

[[record]]
compound = "CC(C)c1nc(-c2cccc(NS(=O)(=O)c3c(F)cccc3F)c2F)c(-c2ccnc(Nc3ccc(N4CCOCC4)nc3)n2)s1 [GSK2008607]"
unit_abbrev = "%"
endpoint_value = 2

[[record]]
compound = "CN(C)Cc1ccc(-c2ccc3c(Nc4ccc(Oc5ccccn5)cc4)ccnc3c2)o1 [GW567148]"
unit_abbrev = "%"
endpoint_value = 4

[[record]]
compound = "Nc1ncc(-c2ccc3nccc(-c4ccncc4)c3c2)cc1S(=O)(=O)N1CCOCC1 [GSK1627798]"
unit_abbrev = "%"
endpoint_value = 18

[[record]]
compound = "CCS(=O)(=O)c1ccc(OC)c(Nc2nccc(-c3c(-c4cccc(NC(=O)c5c(F)cccc5F)c4)nn4ncccc34)n2)c1 [GSK326180]"
unit_abbrev = "%"
endpoint_value = 25

[[record]]
compound = "c1ccc(-c2cnc3nccnn23)cc1 [AH20685]"
unit_abbrev = "%"
endpoint_value = 9

[[record]]
compound = "COc1cccc(-c2ccc3c(NC(=O)C4CC4)n[nH]c3n2)c1 [SB-710903]"
unit_abbrev = "%"
endpoint_value = 20


Let us examine a further case.
Query block: Which %Inh is listed for COc1ccc(Nc2nccc(NCCNC(=O)c3cc4ccccc4s3)n2)cc1 [GSK1379896] ?
Result block: 3

* * *

Test system: MST1
Construct: gene STK4
Conditions: concentration: 1 μM, replicates: in singlicate; n = 1
Below is a list of entries, each paired with its recorded %Inh value.
Could you give the number and then its unit, please?

Answered cases to consult:
[[record]]
compound = "Cl.Cl.NCC(NCc1ccc(-c2ccnc3[nH]ccc23)s1)c1ccccc1 (centres unmarked)"
endpoint_value = "0%"

[[record]]
compound = "Cc1ccc(C(=O)N2CC[C@@H](O)C2)cc1-n1c(C)cc(OCc2ccc(F)cc2F)c(Br)c1=O"
endpoint_value = "0%"

[[record]]
compound = "Cl.c1ccc(-c2ccc3c(Nc4ccc5[nH]ccc5c4)ccnc3c2)nc1"
endpoint_value = "0%"


Query block: Which %Inh is listed for Oc1cc(Nc2ccnc3cc(I)ccc23)ccc1F ?
Result block: 9%

* * *

Tested on: IGF1R
Details: concentration: 1 μM, replicates: in singlicate; n = 1
Below is a list of entries, each paired with its recorded %Inh value.
Could you give the number and then its unit, please?

[[record]]
compound = "O=C(Nc1cccc(-c2nn3ccccc3c2-c2ccnc(Nc3cccc(F)c3)n2)c1)c1c(F)ccc(F)c1Cl"
property_name = "%Inh"
endpoint_value = "17%"

[[record]]
compound = "Nc1n[nH]c2cnc(-c3ccccc3)cc12"
property_name = "%Inh"
endpoint_value = "0%"


Query block: Request body: readout %Inh, system IGF1R, query CNC(=O)c1ccccc1Nc1nc(Nc2ccc(N3CCOCC3)cc2)ncc1Cl.Cl . Return the value.
Result block: 96.6%

Query block: Request body: readout %Inh, system IGF1R, query C[C@@H]1CC[C@@H](C(=O)Nc2ccccc2)CN1c1cc(-c2ccc3c(N)n[nH]c3c2)nc(N)n1 . Return the value.
Result block: 23%

Query block: Request body: readout %Inh, system IGF1R, query Cc1cccc(NC(=O)Nc2ccc(Oc3ncnc4ccn(C)c34)cc2)c1 . Return the value.
Result block: 0%

Query block: Request body: readout %Inh, system IGF1R, query Nc1ncc(-c2ccc3nccc(-c4ccncc4)c3c2)cc1S(=O)(=O)N1CCOCC1 . Return the value.
Result block: 35%

Query block: Request body: readout %Inh, system IGF1R, query COc1cc(Nc2nccc(N3CCC(NC(=O)Nc4cccc(C(C)=O)c4)C3)n2)cc(OC)c1OC (centres unmarked) . Return the value.
Result block: 0%

Query block: Request body: readout %Inh, system IGF1R, query CC(C)c1nc(-c2cccc(NS(=O)(=O)c3c(F)cccc3F)c2F)c(-c2ccnc(Nc3ccc(N4CCOCC4)nc3)n2)s1 . Return the value.
Result block: 8%

Query block: Request body: readout %Inh, system IGF1R, query COc1cccc(NC(=O)NC2CCN(c3ccnc(Nc4cc(OC)c(OC)c(OC)c4)n3)C2)c1 (centres unmarked) . Return the value.
Result block: 0%

Query block: Request body: readout %Inh, system IGF1R, query Cn1cc(-c2ccc3c(c2)CCN3C(=O)Cc2cccc(Cl)c2)c2c(N)ncnc21 . Return the value.
Result block: 0%

Query block: Request body: readout %Inh, system IGF1R, query O=C(Nc1n[nH]c2cc(-c3ccoc3)ccc12)C1CC1 . Return the value.
Result block: 0%

Query block: Request body: readout %Inh, system IGF1R, query COC(=O)Nc1nc2cc(Oc3ccc(NC(=O)Nc4cc(C(F)(F)F)ccc4F)cn3)ccc2[nH]1.Cl.Cl . Return the value.
Result block: 12%

Query block: Request body: readout %Inh, system IGF1R, query Cc1ccc(S(=O)(=O)Nc2ccc(Nc3nccc(Nc4cccc5[nH]ncc45)n3)cc2)cc1 . Return the value.
Result block: 10%

Query block: Request body: readout %Inh, system IGF1R, query Cn1cc(-c2ccc3c(c2)CCN3C(=O)Cc2cccc(F)c2)c2c(N)ncnc21 . Return the value.
Result block: 23%

* * *

Below is a list of entries, each paired with its recorded %Inh value.
Test system: HIPK3
Conditions: concentration: 1 μM, replicates: in singlicate; n = 1
# output: bare number, implied unit %

Answered cases to consult:
[[record]]
molecule = "CNC(=O)c1ccccc1Nc1nc(Nc2ccc(N3CCOCC3)cc2)ncc1Cl.Cl [GSK1576028]"
unit_abbrev = "%"
endpoint_value = 99

[[record]]
molecule = "COc1cc(Nc2nccc(-c3c(-c4cccc(NC(=O)c5c(F)cccc5F)c4)nn4ccccc34)n2)cc(OC)c1OC [GSK323521]"
unit_abbrev = "%"
endpoint_value = 16

[[record]]
molecule = "CN1CCN(CCCNc2nccc(-c3c(-c4ccc(F)cc4)nn4cc(C(F)(F)F)ccc34)n2)CC1 [GW621581]"
unit_abbrev = "%"
endpoint_value = 0

[[record]]
molecule = "CC(=O)Nc1nc2cnc(Nc3cc(NC(=O)c4cccc(C5(C#N)CC5)c4Cl)ccc3C)nc2s1"
unit_abbrev = "%"
endpoint_value = 0

[[record]]
molecule = "Cc1ccc(F)c(C(=O)Nc2cccc(-c3nn4ccccc4c3-c3ccnc(Nc4cccc(F)c4)n3)c2)c1F [GSK361061]"
unit_abbrev = "%"
endpoint_value = 14


Query block: Which %Inh is listed for Cl.c1ccc(-c2ccc3c(Nc4ccc5[nH]ncc5c4)ccnc3c2)nc1 [GW440137] ?
Result block: 51

Query block: Which %Inh is listed for Cc1cccc(Nc2nc(N[C@H]3CCNC3)ncc2C(N)=O)c1.Cl [GSK2197149] ?
Result block: 30

Query block: Which %Inh is listed for Cl.c1ccc(-c2ccc3c(Nc4ccc5[nH]ccc5c4)ccnc3c2)nc1 [GW440138] ?
Result block: 0

* * *

System: GRK3
Construct: gene ADRBK2
Conditions: concentration: 1 μM, replicates: in singlicate; n = 1
Below is a list of entries, each paired with its recorded %Inh value.
# output: bare number, implied unit %

Answered cases to consult:
[[record]]
compound = "CN(C)S(=O)(=O)c1cc(-c2ccc3nccc(-c4cccc(S(N)(=O)=O)c4)c3c2)cnc1N [GSK1669921]"
property_name = "%Inh"
endpoint_value = 0

[[record]]
compound = "CSc1cccc2c(-c3ccncn3)c(-c3ccc(F)cc3)nn12 [GW514786]"
property_name = "%Inh"
endpoint_value = 35

[[record]]
compound = "CN1CCN(CCCNc2nccc(-c3c(-c4ccc(F)cc4)nn4cc(C(F)(F)F)ccc34)n2)CC1 [GW621581]"
property_name = "%Inh"
endpoint_value = 0

[[record]]
compound = "COc1ccc(-c2coc3ccc(-c4nnc(SCc5ccc(OC)c(C(F)(F)F)c5)o4)cc23)cc1"
property_name = "%Inh"
endpoint_value = 0

[[record]]
compound = "C[C@@H]1CC[C@@H](C(=O)Nc2ccccc2)CN1c1cc(-c2ccc3c(N)n[nH]c3c2)nc(N)n1 [GSK2286062]"
property_name = "%Inh"
endpoint_value = 10

[[record]]
compound = "CC(C)c1nc(-c2cccc(NS(=O)(=O)c3c(F)cccc3F)c2F)c(-c2ccnc(Nc3ccc(N4CCOCC4)nc3)n2)s1 [GSK2008607]"
property_name = "%Inh"
endpoint_value = 0

[[record]]
compound = "Cl.Cl.NCC(NCc1ccc(-c2ccnc3[nH]ccc23)s1)c1ccccc1 (stereo not drawn) [GSK1321565]"
property_name = "%Inh"
endpoint_value = 37

[[record]]
compound = "Cl.c1ccc(-c2ccc3c(Nc4ccc5[nH]ncc5c4)ccnc3c2)nc1 [GW440137]"
property_name = "%Inh"
endpoint_value = 22


Let us examine a further case.
Query block: Which %Inh is listed for Oc1cc(Nc2ccnc3cc(I)ccc23)ccc1F [GW552771] ?
Result block: 65
